Biological target: Phosphodiesterase 3 (Canis lupus familiaris)
Test: In vitro inhibitory activity against cAMP PDE III.
The entries below come with measured IC50 values attached.
Give a bare numeral; the unit µM is implied.

Answered examples (8):
Nc1ccc(-c2nccc3nc(O)ccc23)cc1    0.23
OCc1nccc2nc(O)ccc12    3.7
Cc1c2ccc(=O)[nH]c2cc[n+]1[O-]    3.1
CC(C)Cc1nccc2nc(O)ccc12    0.57
Oc1ccc2c(-c3cccs3)nccc2n1    0.14
CCCc1nccc2nc(O)ccc12    0.048
Oc1ccc2c(-c3ccco3)nccc2n1    0.14
Oc1ccc2cnccc2n1    18.8

Supply reported IC50 belonging to this molecule: Oc1ccc2c(-c3ccc(F)cc3)nccc2n1 0.94

Supply reported IC50 belonging to this molecule: Oc1ccc2c(-c3ccc(Cl)cc3)nccc2n1 0.3

Supply reported IC50 belonging to this molecule: Oc1ccc2c(-c3ccncc3)nccc2n1 2.2

Supply reported IC50 belonging to this molecule: Cc1cn(-c2nccc3nc(O)ccc23)cn1 2.8

====

System: Phosphodiesterase 3 (Canis lupus familiaris)
Assay: In vitro inhibition of cAMP PDE III by the compound at a concentration of 10 uM
The entries below come with measured inhibition values attached.
Give a bare numeral; the unit % is implied.

Oc1ccc2c(-c3cccs3)nccc2n1    79
CC(=O)c1nccc2nc(O)ccc12    85
Oc1ccc2cnccc2n1    55

Supply reported inhibition belonging to this molecule: COc1ccc(-c2nccc3nc(O)ccc23)cc1 64

Supply reported inhibition belonging to this molecule: Oc1ccc2c(-c3ccc(F)cc3)nccc2n1 78

====

Tested on: Phosphodiesterase 3 (Canis lupus familiaris)
Assay: Inhibition of cAMP Phosphodiesterase 3 at 10 uM
READOUT NAME: inhibition (%)
Give a bare numeral; the unit % is implied.

Supply reported inhibition belonging to this compound: Oc1ccc2c(-n3cnc(Br)c3)nccc2n1 43

====

Tested on: Phosphodiesterase 3 (Canis lupus familiaris)
Assay: In vitro inhibition of cAMP Phosphodiesterase 3 at a concentration of 10 uM
READOUT NAME: inhibition (%)
Give a bare numeral; the unit % is implied.

Answered examples (3):
Oc1ccc2c(-n3cccn3)nccc2n1    39
Cc1nccc2nc(O)c(O)cc12    51
Cc1nccc2nc(N)ccc12    24

Specify the recorded inhibition for Oc1ccc2c(-c3ccc(Br)cc3)nccc2n1 , system: Phosphodiesterase 3 (Canis lupus familiaris). 55

Specify the recorded inhibition for COc1ccc2c(C)nccc2n1 , system: Phosphodiesterase 3 (Canis lupus familiaris). 21

Specify the recorded inhibition for Cc1nccn1-c1nccc2nc(O)ccc12 , system: Phosphodiesterase 3 (Canis lupus familiaris). 34

Specify the recorded inhibition for Cc1cn(-c2nccc3c2ccc(=O)n3C)cn1 , system: Phosphodiesterase 3 (Canis lupus familiaris). 21

Specify the recorded inhibition for Cc1ncn(-c2nccc3nc(O)ccc23)n1 , system: Phosphodiesterase 3 (Canis lupus familiaris). 39

Specify the recorded inhibition for Oc1ccc2c(-n3cnc(-c4ccccc4)c3)nccc2n1 , system: Phosphodiesterase 3 (Canis lupus familiaris). 43

Specify the recorded inhibition for Cc1ncc([N+](=O)[O-])n1-c1nccc2nc(O)ccc12 , system: Phosphodiesterase 3 (Canis lupus familiaris). 18

Specify the recorded inhibition for Cc1cnn(-c2nccc3nc(O)ccc23)c1 , system: Phosphodiesterase 3 (Canis lupus familiaris). 30

Specify the recorded inhibition for O=[N+]([O-])c1cn(-c2nccc3nc(O)ccc23)cn1 , system: Phosphodiesterase 3 (Canis lupus familiaris). 46
